Parameter 'readout' = IC50; parameter 'system' = ORL-1 receptor (Homo sapiens, UniProt P41146).
Sequence (P41146 whole entry): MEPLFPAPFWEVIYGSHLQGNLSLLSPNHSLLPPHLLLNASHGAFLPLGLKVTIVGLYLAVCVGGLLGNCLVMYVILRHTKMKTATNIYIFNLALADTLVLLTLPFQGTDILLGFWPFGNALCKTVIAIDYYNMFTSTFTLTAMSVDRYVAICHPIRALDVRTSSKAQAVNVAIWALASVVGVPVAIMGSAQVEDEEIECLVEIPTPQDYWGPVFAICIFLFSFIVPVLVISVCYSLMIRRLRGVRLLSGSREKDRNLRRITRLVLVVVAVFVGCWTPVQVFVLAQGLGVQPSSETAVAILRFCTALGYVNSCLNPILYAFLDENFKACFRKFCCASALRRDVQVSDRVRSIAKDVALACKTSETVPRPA
Express it in µM; write the number only.

Which IC50 is listed for CCCc1ccc(OCc2ccccc2C(=O)Nc2ccc3nc(C)cc(N)c3c2)cc1.Cl [Example 34, hydrochloride] ?
0.14

Value lookup for IC50; key = `Cc1cc(N)c2cc(NC(=O)c3ccccc3CCCCOc3ccccc3)ccc2n1.Cl`
1.03

# query: IC50 of entry Cc1cc(N)c2cc(NC(=O)c3ccccc3COc3ccc(C#N)cc3)ccc2n1.Cl [Example 16, hydrochloride]
0.11

What value of measured IC50 is listed for Cc1cc(N)c2cc(NC(=O)c3ccccc3COc3ccc(Br)cc3)ccc2n1.Cl [Example 33, hydrochloride] ?
0.09

Could you share which IC50 value was measured for `Cc1cc(N)c2cc(NC(=O)c3ccccc3CCCCCOc3ccccc3)ccc2n1.Cl` ?
1.39

State the recorded IC50 for this entry: `CCc1ccc(OCc2ccccc2C(=O)Nc2ccc3nc(CC)cc(N)c3c2)c(Cl)c1`
0.11

Could you share which IC50 value was measured for `CCc1cc(N)c2cc(NC(=O)c3ccccc3COc3ccc(Cl)cc3)ccc2n1.Cl` ?
0.04

Which IC50 value is on record for Cc1cc(C)cc(OCc2ccccc2C(=O)Nc2ccc3nc(C)cc(N)c3c2)c1.Cl [Example 5, hydrochloride] ?
0.52

Please report the recorded IC50 for COc1cc(OC)cc(OCc2ccccc2C(=O)Nc2ccc3nc(C)cc(N)c3c2)c1.Cl [Example 10, hydrochloride] .
1.02

# query: IC50 of entry `Cc1cccc(OCc2ccccc2C(=O)Nc2ccc3nc(C)cc(N)c3c2)c1`
0.32

Value lookup for IC50; key = Cc1cc(N)c2cc(NC(=O)c3ccccc3COc3ccccc3)ccc2n1.Cl [Example 3, hydrochloride]
1.47

IC50 lookup needed for Cc1cc(N)c2cc(NC(=O)c3ccccc3COc3ccc(Cl)cc3Cl)ccc2n1.Cl [Example 2, hydrochloride] , thanks.
0.07

Report IC50 for CCc1ccc(OCc2ccccc2C(=O)Nc2ccc3nc(C)cc(N)c3c2)c(Cl)c1.Cl [Example 89, hydrochloride] please.
0.13

What value of IC50 has been recorded for this entry: CC(=O)c1ccc(OCc2ccccc2C(=O)Nc2ccc3nc(C)cc(N)c3c2)cc1.Cl [Example 12, hydrochloride]
0.16

Can you look up the measured IC50 of Cc1cc(N)c2cc(NC(=O)c3ccccc3COc3ccc(Cl)c(Cl)c3)ccc2n1.Cl [Example 26, hydrochloride] for me?
0.08

Query: IC50; subject: COc1cccc(OCc2ccccc2C(=O)Nc2ccc3nc(C)cc(N)c3c2)c1OC.Cl [Example 8, hydrochloride]
0.94
